This collection of values is drawn from PubChem BioAssay.

Answer each item with its documented composite z-score.
Target: Torsin-1A (Homo sapiens) (UniProt O14656)
Sequence (O14656 whole entry, looked up): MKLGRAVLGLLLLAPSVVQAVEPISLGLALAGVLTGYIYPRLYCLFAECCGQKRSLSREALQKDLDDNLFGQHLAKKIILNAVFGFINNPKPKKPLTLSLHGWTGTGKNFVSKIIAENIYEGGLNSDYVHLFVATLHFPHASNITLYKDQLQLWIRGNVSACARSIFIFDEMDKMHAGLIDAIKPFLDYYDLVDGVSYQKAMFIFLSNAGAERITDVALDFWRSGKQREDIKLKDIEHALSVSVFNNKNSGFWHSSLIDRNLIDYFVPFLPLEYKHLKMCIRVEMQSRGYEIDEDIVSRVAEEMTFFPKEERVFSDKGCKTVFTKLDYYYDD
Assay: torsin A binders from cell lysate, primary screen, small-molecule microarray, wild-type, 635/667 nm (AID 1149)
Settings: COS7 hTOR1A-WT lysate, 635 nm fluorescence, higher = more signal
Numbers only.

{"COMPOUND": "C[C@]1(C(=O)NCC(F)(F)F)c2ccccc2C(=O)N(Cc2ccccc2)[C@H]1c1ccc(CO)cc1", "composite z-score": -0.938}
{"COMPOUND": "COc1ccc(C#Cc2ccc3c(c2)[C@]2(C(=O)N3)[C@H](c3ccc(OCCO)cc3)N3[C@H](c4ccccc4)[C@H](c4ccccc4)OC(=O)[C@H]3[C@@H]2C(=O)N2CCc3cc(OC)c(OC)cc3C2)cc1", "composite z-score": 0.394}

Each of the following entries comes with a recorded value; kindly state composite z-score for each.
1. C=CC[C@H](OC(=O)Nc1ccc(SC)cc1)c1ccc(OCCO)cc1
2. CC(=O)NCCCC[C@@H]1NC(=O)[C@H]2C[C@@H](C(=O)NCCCCCNC(=O)CS)[C@@H](c3cccc(OCCO)c3)N2C1=O
3. C=C[C@@H](C)[C@H](O)c1ccc(OCCO)cc1
4. COC(=O)C1=CC(CCCO)=CC(c2ccc(CN3CCCC3)cc2)N(Cc2cc3c(cc2Br)OCO3)C=C1C(=O)OC (stereo not drawn)

0.25
0.498
-3.14
0.0851

For each of the compounds below, note its composite z-score.
1. COCCOC(=O)N1C(=O)[C@@]2(c3cc(C#CCCO)ccc31)[C@H](C(=O)N1CCCCCCC1)[C@H]1C(=O)O[C@H](c3ccccc3)[C@H](c3ccccc3)N1[C@@H]2c1ccccc1OCCO
2. O=C(NCC(O)CO)[C@@]1(CCS(=O)(=O)c2ccccc2)COC(c2ccc(OCCCO)cc2)=N1 (stereo partly drawn)

[1.22, 1.13]

* * *

Biological target: Torsin-1A-interacting protein 2 (Homo sapiens)
Assay: LULL1 binders on small-molecule microarray, primary screen, cell lysate, human LULL1 lysate, 635/667 nm fluorescence (AID 1092);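 note: probe is lysate of COS7 cells overexpressing human LULL1; score merges per-feature 667 nm fluorescence with signal-to-noise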
Conditions: hLULL1 lysate binding, 635 nm fluorescence, higher = more signal
QUANTITY MEASURED: composite z-score
Answers are plain numbers.

Record excerpt, results attached:
{"COMPOUND": "C=CCNC(=O)[C@@H]1[C@H]2C(=O)O[C@H](c3ccccc3)[C@H](c3ccccc3)N2[C@H](c2ccc(O)cc2)[C@@]12C(=O)Nc1ccc(C#CCC(C(=O)OC)C(=O)OC)cc12", "composite z-score": 2.32}
{"COMPOUND": "CC(C)C[C@@H]1NC(=O)[C@H]2C[C@@H](C(=O)NCCCCCN)[C@@H](c3cccc(OCCO)c3)N2C1=O", "composite z-score": 0.872}
{"COMPOUND": "C=CC1c2cc(O)c(OC)cc2CCN1Cc1ccc([N+](=O)[O-])o1 (configuration not stated)", "composite z-score": 2.77}
{"COMPOUND": "CCCCC=C[C@@H](NC(=O)c1ccccc1)c1ccccc1", "composite z-score": 3.51}
{"COMPOUND": "COCCOC(=O)N1C(=O)[C@@]2(c3cc(C#CCC(C(=O)OC)C(=O)OC)ccc31)[C@H](C(=O)NC[C@H](O)c1ccccc1)[C@H]1C(=O)O[C@H](c3ccccc3)[C@H](c3ccccc3)N1[C@@H]2c1ccc(OCCO)cc1", "composite z-score": 2.08}

I would be grateful if you could provide composite z-score for each of the following entries.
1. C=C[C@@H](C)[C@@H](OC(=O)Nc1ccc(SC)cc1)c1ccc(OCCO)cc1
2. COc1cc(NN2C(C(O)C3CCCCC3)C=CC3C(=O)N(c4ccccc4)C(=O)C32)cc(OC)c1OC (configuration not stated)

1. 1.92
2. 3.25
